meta.source: the supplement of paper PMC10567573

B1: ZNF263 (parent)
chain: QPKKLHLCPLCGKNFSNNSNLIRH

Variants of: B1
PROTOCOL_DETAILS: protein stability index of a GFP-peptide fusion (GPS, HEK-293T) (PSI 1-6); higher = more stable;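 further: lentivirally expressed fusions sorted by FACS into six bins by GFP to DsRed ratio, PSI derived from sequencing read proportions per bin multiplied by bin number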
CONDITION_LABEL: c terminus: a fixed tail appended
Answer each item with its documented protein stability index.
Answer with the value's number alone.

q: Form field: reported protein stability index of P9C
a: 2.3

q: Please do the same for F15M as well.
a: 1.99

q: Let us now turn to Q1T
a: 2.5

q: Field entry: N17E
a: 2.33

q: // same read-out, input: P9M
a: 2.31

q: Likewise for N17D ?
a: 2.48

q: Next variant up: L7H
a: 2.46

q: Now the variant H24L
a: 2.24

q: Same read-out for N20R ?
a: 2.01

q: How about this variant: L5A
a: 2.53

q: // same read-out, input: C11M
a: 2.07

q: What do you have for H6K ?
a: 2.81

q: Okay, and K13F ?
a: 2.51

q: Thanks! And S16P ?
a: 2.49

q: Again, but for P9Q
a: 2.67

q: Try P2C next.
a: 2.13

q: Follow-up item: L7T
a: 2.74

q: And the next one, K3P ?
a: 2.62

q: // repeat for I22Y and report
a: 2.69

q: Consider next the variant F15G in the same way.
a: 1.8

q: Thanks! And H24M ?
a: 2.31

q: Same thing, different variant: I22W
a: 1.79
